Molecular target: endogenous human tissue factor on MDA-MB-231 breast cancer cells (human, UniProt P13726 33-295); also: test concentration or dose not given here
Assay: cell-based or functional assay
ENDPOINT: % IL-8 Inhibition (%)
# number only, unit % dropped from output

M12 (antibody, V domains shown, complete MAb; FR4 is its own entry; also called H15/L5) VH: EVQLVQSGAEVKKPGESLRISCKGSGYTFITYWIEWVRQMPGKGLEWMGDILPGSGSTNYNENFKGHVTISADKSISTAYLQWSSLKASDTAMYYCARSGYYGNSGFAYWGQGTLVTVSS VL: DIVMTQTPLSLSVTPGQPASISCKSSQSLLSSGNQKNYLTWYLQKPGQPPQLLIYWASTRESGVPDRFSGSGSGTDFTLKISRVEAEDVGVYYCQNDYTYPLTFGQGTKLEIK    98.6
M1, 10H10 mouse-human chimera (antibody, V domains shown, also called H13/L1; parent chimeric antibody) VH: QVHLQQSGAELMKPGASVKISCKASGYTFITYWIEWVKQRPGHGLEWIGDILPGSGSTNYNENFKGKATFTADSSSNTAYMQLSSLTSEDSAVYYCARSGYYGNSGFAYWGQGTLVTVSA VL: DIVMTQSPSSLTVTAGEKVTMSCKSSQSLLSSGNQKNYLTWYQQIPGQPPKLLIYWASTRESGVPDRFTGSGSGTDFTLTINSVQAEDLAVYYCQNDYTYPLTFGAGTKLELK    96.1

Turning now to a further binder:
Can you share its % IL-8 Inhibition? I mean this binder: M52 (antibody, V domains shown, complete MAb; FR4 is its own entry; also called H21/L3) VH: EVQLVQSGAEVKKPGATVKISCKVSGYTFITYWIEWVQQAPGKGLEWMGDILPGSGSTNYNENFKGRVTITADTSTDTAYMELSSLRSEDTAVYYCATSGYYGNSGFAYWGQGTLVTVSS VL: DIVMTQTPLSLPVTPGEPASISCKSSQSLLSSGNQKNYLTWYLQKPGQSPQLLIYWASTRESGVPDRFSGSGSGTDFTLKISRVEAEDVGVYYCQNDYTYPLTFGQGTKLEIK
67.7
